- Protocol details: activity coefficient (dimensionless); of the first substance listed, at infinite dilution; xn = mol fraction of the nth substance listed
- Condition details: 353.15 K; 101 kPa; Liquid; Chromatography; x1 = 0
// activity coefficient lookup, one value per entry
The response must contain the number and no unit.

Solved entries (count: 4):
## Task Value lookup for activity coefficient; key = c1ccccc1 [benzene] + CCCCOP(=O)([O-])OCCCC.CCCCn1cc[n+](C)c1
## Result 0.88

## Task What about this molecule? Cc1cccc(C)c1 [1,3-dimethylbenzene] + CCCCOP(=O)([O-])OCCCC.CCCCn1cc[n+](C)c1
## Result 1.85

## Task What about this molecule? CCCCCCCCCC [decane] + CCCCOP(=O)([O-])OCCCC.CCCCn1cc[n+](C)c1
## Result 8.54

## Task What about this molecule? CCCCCCC [heptane] + CCCCOP(=O)([O-])OCCCC.CCCCn1cc[n+](C)c1
## Result 5.12

Next:
## Task Value lookup for activity coefficient; key = CCCCCCCC [octane] + CCCCOP(=O)([O-])OCCCC.CCCCn1cc[n+](C)c1
## Result 6.21

## Task What about this molecule? C1=CCCCC1 [cyclohexene] + CCCCOP(=O)([O-])OCCCC.CCCCn1cc[n+](C)c1
## Result 2.02

## Task What about this molecule? CCCCCC [hexane] + CCCCOP(=O)([O-])OCCCC.CCCCn1cc[n+](C)c1
## Result 4.32

## Task What about this molecule? Cc1ccccc1C [1,2-dimethylbenzene] + CCCCOP(=O)([O-])OCCCC.CCCCn1cc[n+](C)c1
## Result 1.68

## Task What about this molecule? CC1CCCCC1 [methylcyclohexane] + CCCCOP(=O)([O-])OCCCC.CCCCn1cc[n+](C)c1
## Result 3.41
